All figures here come from the supplement of paper PMC8671470.

Recorded cell viability values for a group of compounds are listed next.
Tested on: myeloid leukemia patient primary cells Pat.10
Test: cell viability (% survival relative to DMSO control); higher = less cytotoxic
Details: 10000 nM; 72 h

{"columns": ["smiles data", "subject of test", "cell viability"],
 "data": [
  ["CN(C)CCNC(=O)c1cccn2c(=O)c3cc4ccccc4cc3nc12", "myeloid leukemia patient primary cells Pat.10", "17.3%"],
  ["Nc1ccn([C@@H]2O[C@H](CO)[C@@H](O)C2(F)F)c(=O)n1", "myeloid leukemia patient primary cells Pat.10", "7.03%"],
  ["O=C(Cc1cccc(OC(F)(F)F)c1)Nc1ccc(CCCCc2nnc(NC(=O)Cc3ccccn3)s2)nn1", "myeloid leukemia patient primary cells Pat.10", "68.9%"],
  ["Fc1ccc(CNc2ncnc3ccc(F)cc23)cc1", "myeloid leukemia patient primary cells Pat.10", "47.9%"],
  ["CCn1c(=O)/c(=C2\\Sc3ccccc3N2C)s/c1=C\\c1cccc[n+]1CC.[Cl-]", "myeloid leukemia patient primary cells Pat.10", "67.1%"]
]}

* * *

Test system: KU-812
Assay: cell viability (% survival relative to DMSO control, bortezomib = 0%); higher = less cytotoxic
Conditions: 1000 nM; 72 h

{"columns": ["compound", "scale unit", "cell viability"],
 "data": [
  ["OC[C@H]1N[C@@H](c2c[nH]c3c(O)ncnc23)[C@H](O)[C@@H]1O", "%", 96.4],
  ["CCCCCCCCCCCCCCOc1ccc(C(=O)O)o1", "%", 81.5],
  ["CN(C)C(=N)NC(=N)N", "%", 110],
  ["CCCCC/C=C\\C/C=C\\C/C=C\\C/C=C\\CCCC(=O)C(F)(F)F", "%", 68.5],
  ["C=C1C(=O)O[C@H](CCCCCCCC)[C@H]1C(=O)O", "%", 102],
  ["c1ccc2nc(-c3nnc4sc(-c5cnccn5)nn34)ccc2c1", "%", 91.8],
  ["O=C(Oc1cccc(F)c1OC(=O)c1cccc(O)c1)c1cccc(O)c1", "%", 99.9],
  ["CN(C)CCNC(=O)c1cccn2c(=O)c3cc4ccccc4cc3nc12", "%", 15.5],
  ["N#Cc1ccc(C2CCCc3cncn32)cc1 (centres undefined)", "%", 112],
  ["CN1CC(=O)N2[C@H](c3ccc4c(c3)OCO4)c3[nH]c4ccccc4c3C[C@@H]2C1=O", "%", 106],
  ["CC(=O)N1CCN(c2ccc(OC[C@@H]3CO[C@@](Cn4ccnc4)(c4ccc(Cl)cc4Cl)O3)cc2)CC1 (racemic)", "%", 105],
  ["CNC(=C[N+](=O)[O-])NCCSCc1ccc(CN(C)C)o1", "%", 96.8],
  ["C[C@H]1O[C@H](O[C@H]2[C@H](O)[C@@H](O)[C@@H](O[C@H]3[C@H](O)[C@@H](O)C(O)O[C@@H]3CO)O[C@@H]2CO)[C@H](O)[C@@H](O)[C@@H]1N[C@H]1C=C(CO)[C@@H](O)[C@H](O)[C@H]1O (mixture of isomers)", "%", 114],
  ["O=C(Cc1cccc(OC(F)(F)F)c1)Nc1ccc(CCCCc2nnc(NC(=O)Cc3ccccn3)s2)nn1", "%", 67.2],
  ["CN(C)C(=O)n1nnnc1Cc1ccc(-c2ccccc2)cc1", "%", 77.9],
  ["OC[C@H]1OC(O)C[C@@H](O)[C@@H]1O (some centres undefined)", "%", 85.1],
  ["CC(C)c1ccc2c(c1)c(SC(C)(C)C)c(CC(C)(C)C(=O)O)n2Cc1ccc(Cl)cc1", "%", 94.9],
  ["CC(C)(O)CNc1nc(Nc2ccnc(C(F)(F)F)c2)nc(-c2cccc(C(F)(F)F)n2)n1", "%", 90],
  ["Cc1[nH]n(-c2ccccc2)c(=O)c1C1(C(F)(F)F)C(=O)N(c2ccccc2)C2=C1C(=O)CC(C)(C)C2 (centres undefined)", "%", 111],
  ["Cn1c2cc(S(C)=O)sc2c2cnn(Cc3cccc(N)c3)c(=O)c21 (centres undefined)", "%", 107],
  ["COc1ccc2c(c1)c(CC(=O)O)c(C)n2C(=O)c1ccc(Cl)cc1", "%", 96.4],
  ["COc1cc(C2Oc3cc(C4Oc5cc(O)cc(O)c5C(=O)C4O)ccc3OC2CO)ccc1O (centres undefined)", "%", 94.1],
  ["Nc1ccn([C@@H]2O[C@H](CO)[C@@H](O)C2(F)F)c(=O)n1", "%", 6.94],
  ["O=c1oc2c(cc1O)oc(=O)c1cc(O)c(O)c(O)c12", "%", 96.6],
  ["CC1Cc2ccccc2N1NC(=O)c1ccc(Cl)c(S(N)(=O)=O)c1 (centres undefined) [Indapamide]", "%", 104],
  ["O=C(/C=C/c1cccnc1)NCCCCC1CCN(C(=O)c2ccccc2)CC1", "%", 5.8],
  ["C=C1NC(=O)c2cc(CN(C)c3ccc(C(=O)N[C@@H](CCC(=O)O)C(=O)O)s3)ccc2N1", "%", 34.6],
  ["Cc1nc(-c2ccc(OCC(C)C)c(C#N)c2)sc1C(=O)O", "%", 98.4],
  ["CC(C)(CCCCCCCCCCC(C)(C)CC(=O)O)CC(=O)O", "%", 106]
]}

* * *

System: myeloid leukemia patient primary cells Pat.8
Experiment: cell viability (% survival relative to DMSO control); higher = less cytotoxic
Settings: 10000 nM; 72 h
Counter-ions that a name gives are not always drawn.
Recorded cell viability values for a group of molecules are listed next.
observed property: cell viability

{"columns": ["molecule", "subject of test", "observed property", "measured result"],
 "data": [
  ["CCC(CC#N)OC(=O)N[C@@H](C)c1cccc(NC(=O)Nc2ccc(-c3cnco3)c(OC)c2)c1 (stereo in doubt)", "myeloid leukemia patient primary cells Pat.8", "cell viability", "58.1%"],
  ["O=C(Oc1cccc(F)c1OC(=O)c1cccc(O)c1)c1cccc(O)c1", "myeloid leukemia patient primary cells Pat.8", "cell viability", "11%"],
  ["C=C1NC(=O)c2cc(CN(C)c3ccc(C(=O)N[C@@H](CCC(=O)O)C(=O)O)s3)ccc2N1", "myeloid leukemia patient primary cells Pat.8", "cell viability", "> 100%"],
  ["CC(C)(Cc1ccccc1)NCC(O)c1ccc(O)c(NS(C)(=O)=O)c1 (stereo unspecified) [Zinterol hydrochloride]", "myeloid leukemia patient primary cells Pat.8", "cell viability", "85.5%"],
  ["NS(=O)(=O)c1ccc(S(=O)(=O)Nc2cccc3c(Cl)c[nH]c23)cc1", "myeloid leukemia patient primary cells Pat.8", "cell viability", "55.5%"],
  ["CCCCCCCCCCCCC/C=C/[C@@H](O)[C@H](CO)N(C)C", "myeloid leukemia patient primary cells Pat.8", "cell viability", "0.0301%"]
]}

* * *

Tested on: THP-1
Assay: cell viability (% survival relative to DMSO control, bortezomib = 0%); higher = less cytotoxic
Settings: 10 nM; 72 h

{"columns": ["molecule", "cell viability (%)"],
 "data": [
  ["O=[As]O[As]=O (centres undefined) [Arsenic trioxide]", 96.1],
  ["COc1ccc2c(c1)c(CC(=O)O)c(C)n2C(=O)c1ccc(Cl)cc1", 98.8],
  ["CNC(=C[N+](=O)[O-])NCCSCc1ccc(CN(C)C)o1", 103],
  ["C=C1C(=O)O[C@H](CCCCCCCC)[C@H]1C(=O)O", 94.7],
  ["NCc1ccc(-c2cccnc2)s1", 111],
  ["N#Cc1ccc(C2CCCc3cncn32)cc1 (centres undefined)", 96.3],
  ["OC[C@H]1OC(O)C[C@@H](O)[C@@H]1O (some centres undefined)", 96.1],
  ["O=C(/C=C/c1cccnc1)NCCCCC1CCN(C(=O)c2ccccc2)CC1", 120],
  ["CCCCC/C=C\\C/C=C\\C/C=C\\C/C=C\\CCCC(=O)C(F)(F)F", 103]
]}

* * *

System: myeloid leukemia patient primary cells Pat.10
Assay: area under dose-response curve (viability, 1 nM-10 uM) (fraction (0-1)); higher = more sensitive
Conditions: 72 h
observed property: area under dose-response curve

{"columns": ["smiles data", "measurement qualifier", "measured result"],
 "data": [
  ["O=C(Oc1cccc(F)c1OC(=O)c1cccc(O)c1)c1cccc(O)c1", "=", 0.176],
  ["CC(C)c1onc(-c2c(Cl)cccc2Cl)c1COc1ccc(/C=C/c2cccc(C(=O)O)c2)c(Cl)c1", "=", 0.473],
  ["Nc1nc(O)c2c(CCc3ccc(C(=O)N[C@@H](CCC(=O)O)C(=O)O)cc3)c[nH]c2n1", "<", 0.0301],
  ["Nc1ccn([C@@H]2O[C@H](CO)[C@@H](O)C2(F)F)c(=O)n1", "=", 0.257]
]}

* * *

System: myeloid leukemia patient primary cells Pat.1
Assay: cell viability (% survival relative to DMSO control); higher = less cytotoxic
Details: 10 nM; 72 h
Where a name gives a salt, the structure may show the parent alone.
Recorded cell viability values for a group of compounds are listed next.
observed property: cell viability

{"columns": ["compound", "measured result"],
 "data": [
  ["Fc1ccc(CNc2ncnc3ccc(F)cc23)cc1 [Spautin 1]", "84.4%"],
  ["CCCCCCCCCCCCC/C=C/[C@@H](O)[C@H](CO)N(C)C [N,N-Dimethylsphingosine]", "92.6%"],
  ["Nc1nc(O)c2c(CCc3ccc(C(=O)N[C@@H](CCC(=O)O)C(=O)O)cc3)c[nH]c2n1 [Pemetrexed]", "99.3%"],
  ["C=C1NC(=O)c2cc(CN(C)c3ccc(C(=O)N[C@@H](CCC(=O)O)C(=O)O)s3)ccc2N1 [Raltitrexed]", "96.9%"],
  ["CC(C)(Cc1ccccc1)NCC(O)c1ccc(O)c(NS(C)(=O)=O)c1 (stereo not given) [Zinterol hydrochloride]", "> 100%"]
]}
